System: Mus musculus
assay.notes: Effective dose required to inhibit ataxia after intraperitoneal administration in experiment 2
Format: functional
condition.set: ip
Lab note: anything with ED50 below 50 mg/kg is marked Yes; values at 50 mg/kg or higher are marked No.

Worked set:
compound=CCCCCCc1cccc(N2CCNCC2)n1 assigned_label=Yes
compound="NC(=O)N1c2ccccc2C=Cc2ccccc21 [CARBAMAZEPINE]" assigned_label=No

Q. Lab log: compare recorded ED50 with 50 mg/kg; is it strictly lower for `CCCCCCCCCc1cccc(N2CCNCC2)n1` ?
A. Yes

Q. ED50 strictly < 50 mg/kg for this compound? `CCCCCCCc1cccc(N2CCNCC2)n1`
A. Yes

Q. Just wondering, is ED50 of `O=C1NC(=O)C(c2ccccc2)(c2ccccc2)N1` below 50 mg/kg?
A. No

Where these numbers come from: ChEMBL document CHEMBL1124485
